B1: LINE1-mini (parent)
chain: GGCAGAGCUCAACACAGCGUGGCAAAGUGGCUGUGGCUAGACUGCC

# Variants of: B1
# methodNotes: self-cleavage, relative activity (ratio to wild type); higher = more cleavage; in vitro, sequencing; the parent is a self-cleaving ribozyme
readout: self-cleavage
# respond with the number and nothing more

Answered cases to consult:
[[record]]
change = "U32C G40U"
endpointvalue = 0.07

[[record]]
change = "G29C G40U"
endpointvalue = 0.07


// next item, self-cleavage requested
Entry U9G C18A — recorded self-cleavage = 0.07
